Test: qHTS of small molecules that selectively kill Giardia lamblia: Hit Validation.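 Note: viability measured as ATP content by luminescence so killing lowers signal; trophozoites exposed to compounds for 48 h anaerobically at 37 °C; nearly all actives have a fitted effect of over 65% in size.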
Run Conditions: Giardia lamblia trophozoite viability, dose-response; series mostly up to 38.3 µM
Hit rate of the full screen: of about 1,300 compounds, about 1,000 (77%) were called active. Not shown: some 7% with an inconclusive outcome. Calls come from the whole dose curve; as a rule, active = well fitted inhibition curve with a large enough effect; inconclusive = small, poorly fitted or top-dose-only effect; inactive = no such curve, though single readings can be large or run the other way. The set was probably picked from earlier hits. Some of the results follow.
Choose the fitting class; nothing outside Yes (active), No (inactive) is accepted.

Please review the entries below; each comes with its answer.
>>> group("COc1cc(/C=C2\\SC(=O)N(Cc3ccc(F)cc3)C2=O)cc([N+](=O)[O-])c1O")
"Yes"
>>> group("Cc1cc(NC(=O)c2ccc([N+](=O)[O-])o2)ccc1NC(=O)c1ccco1")
"Yes"
>>> group("COc1cc(/C=C2\\SC(=O)N(c3ccc(Cl)cc3)C2=O)cc([N+](=O)[O-])c1O")
"Yes"
>>> group("Cc1ccc(N=c2c([N+](=O)[O-])nn(-c3ccccc3)n2O)c(C)c1")
"Yes"
>>> group("CC(=O)c1cccc(NC(=O)c2ccc([N+](=O)[O-])o2)c1")
"Yes"

Enquiry: For O=C(Nc1cccc(NC(=O)c2ccc([N+](=O)[O-])o2)c1)c1ccco1 , which call appears in the assay record?
Return: Yes
